- TARGET SYSTEM: Aβ42 (Homo sapiens)
- Sequence (P05067 672-713): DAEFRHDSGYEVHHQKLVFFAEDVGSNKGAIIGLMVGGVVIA
- TEST METHOD NOTES: Th-T (thioflavin-T) assay of Aβ42 aggregation
- Type: biochemical
- APPLIED CONDITIONS: Supplementary Fig. 47 source data; measurement M46 of time course
OUTCOME MEASURE: Th-T fluorescence, mean of three wells
Form rule: numeric answer, no unit written next to it.

INSERT INTO results (compound, result_number) VALUES
  ('C=C1CCC2C(C)(CCC=C(C)C)C(=O)CCC2(C)C1Cc1c(O)c(C)c(C)oc1=O (stereo not drawn) [Compound 8]', 2.181),
  ('C=C1CC[C@@H]2[C@](C)(CC[C@H]3O[C@H](C=C(C)C)C[C@@]23C)[C@@H]1Cc1c(O)c(C)c(C)oc1=O [Compound 10, higginsianin A]', 3.104);

Please find the next compound below.
Qu. Entry C=C1CC[C@H]2[C@]3(C)C[C@H](C=C(C)C)O[C@H]3CC[C@]2(C)[C@@H]1Cc1c(O)c(C)c(C)oc1=O [Compound 6, subglutinol B] has what Th-T fluorescence, mean of three wells?
Ans. 3.079
